method: MRP1 drug-resistance reversers in H69AR cells – cell-based, doxorubicin co-treatment, primary screen (AID 602)
run_parameters: H69AR cells + 2 uM doxorubicin, CellTiter-Glo, 72 h; measured here: viability with 2 uM doxorubicin; at 10 µM; stronger effect = lower value
Out of some 85,000 compounds screened, about 35 (0.04%) were called active. Only a selection was taken, and actives are over-represented in it overall.
measurement_name: viability (%)
Numeric only. Scale: %

COc1ccc(-c2cc(C(F)(F)F)nc(NCc3cccnc3)n2)cc1 91.7
Cc1ccc(NC(=O)Nc2ccc3oc(C)nc3c2)cc1 91.5
O=C(CN1CCSCC1)N/N=C/c1ccc(F)cc1 90.1
COc1ccc(-c2cc(C(=O)NCc3ccco3)no2)cc1OC 92.6

Let's switch to this compound now.
What measured viability goes with `O=C(CN1CCCCC1)N1c2ccccc2Sc2ccc(C(F)(F)F)cc21` ?
91.2

---

Listed below: differential viability (reversal) values for each entry.
method: MRP1 drug-resistance reversers in H69AR cells – cell-based, doxorubicin co-treatment, primary screen (AID 602);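 on differential viability (reversal): larger differential means the compound sensitizes cells more to doxorubicin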
run_parameters: H69AR cells + 2 uM doxorubicin, CellTiter-Glo, 72 h; at 10 µM; stronger effect = higher value
Among all 85,000 compounds or so, about 35 (0.04%) were called active. This excerpt belongs to a sample that is enriched for actives.
All answers are understood in %, so give the number only.

compound	differential viability (reversal) (%)
CCOC(=O)CSc1nc2ccc(C)cc2[nH]1	2.1

If you can, please state the reported differential viability (reversal) value of CCCC1NC(=O)NC(C)=C1C(=O)OCC (configuration not stated) .
2.9

Recorded differential viability (reversal) for `COc1cccc(OC)c1C(=O)Nc1ccc(N2CCCCC2)cc1` , please?
15

// query differential viability (reversal) value for entry `COCCn1c(C)cc(C2=NNC(=Nc3ccc(F)cc3)SC2)c1C`
-17.5

---

method: MRP1 drug-resistance reversers in H69AR cells – cell-based, doxorubicin co-treatment, primary screen (AID 602);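 on differential viability (reversal): larger differential means the compound sensitizes cells more to doxorubicin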
run_parameters: H69AR cells + 2 uM doxorubicin, CellTiter-Glo, 72 h; at 10 µM; stronger effect = higher value
Hit rate of the full screen: of about 85,000 compounds, about 35 (0.04%) were called active. This excerpt belongs to a sample that is enriched for actives.
measurement_name: differential viability (reversal) (%)
State just the number; it will be interpreted in %.

molecule	measurement_name	assay_value
Cc1ccc(SCCC(=O)OCC(=O)Nc2ncc(Cl)cc2Cl)cc1	differential viability (reversal)	6.94
Cc1nnc(SCC(=O)Nc2ncc3c(n2)CC(C)(C)CC3=O)s1	differential viability (reversal)	16.1
CCn1c(-c2ccoc2C)n[nH]c1=S	differential viability (reversal)	3.26
COc1ccc(Nc2nc(=O)[nH]nc2C)cc1	differential viability (reversal)	-5.85

State the recorded differential viability (reversal) for this entry: `Cc1cc(O)cc(O)c1C(=O)Cc1cnn(-c2ccccc2)c1`
13

Can you look up the measured differential viability (reversal) of `O=C(CN1CCCCC1)N1c2ccccc2Sc2ccc(C(F)(F)F)cc21` for me?
-4.36

---

method: MRP1 drug-resistance reversers in H69AR cells – cell-based, doxorubicin co-treatment, primary screen (AID 602)
run_parameters: H69AR cells, CellTiter-Glo, 72 h; measured here: cytotoxicity without doxorubicin; at 10 µM
Among all 85,000 compounds or so, about 35 (0.04%) were called active. This is one part of a sample in which actives are shown more often than they occur.
measurement_name: viability (%)
Hi! Could you send only the number? It should be in %, unit omitted.

Below, each entry is followed by its recorded viability result.
compound	assay_value
COc1ccc(NC(=O)C2C3C=CC(C3)C2C(=O)NCc2ccccn2)c(OC)c1 (stereo unspecified)	93.1
CCCC1NC(=O)NC(C)=C1C(=O)OCC (stereo unspecified)	99.8
COC(=O)c1ccccc1NC(=O)CSc1nnnn1C	95.3
Cc1ccc(C(=O)N/N=C/c2sc(=O)n(Cc3cccc(C(=O)O)c3)c2Cl)cc1	87.1
CC(C)NC(=O)CSc1ccccc1C(=O)NCc1ccc2c(c1)OCO2	96.7

What value of viability has been recorded for this entry: `O=c1c2ccccc2nc2n1C1(CCCCC1)Cc1ccccc1-2`
83.7

Could you tell me which viability is on file for CC(C)C(=O)NC(NC(=S)NC1CCS(=O)(=O)C1)C(Cl)(Cl)Cl (stereo unspecified) ?
102

Requested read-out: viability. Entry: `Cc1ccc(NC(=O)Nc2ccc3oc(C)nc3c2)cc1`
74.5
